Target: MacroD1 (Homo sapiens)
Sequence (Q9BQ69 90-325): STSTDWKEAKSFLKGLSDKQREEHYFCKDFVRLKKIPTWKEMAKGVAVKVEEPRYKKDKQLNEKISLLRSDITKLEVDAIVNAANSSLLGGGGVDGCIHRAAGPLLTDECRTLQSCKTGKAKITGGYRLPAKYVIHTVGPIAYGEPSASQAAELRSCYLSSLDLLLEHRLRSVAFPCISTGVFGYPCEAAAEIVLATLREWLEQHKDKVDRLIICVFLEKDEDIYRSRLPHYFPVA
Assay: biochemical
Where a name gives a salt, the structure may show the parent alone.
measuredProperty: pIC50
By convention, pIC50 is the negative base-10 log of a molar concentration.

Enquiry: Any idea what its pIC50 is? The compound is Nc1ncnc2c1ncn2C1OC(COP(=O)(O)OP(=O)(O)OCC2OC(O)C(O)C2O)C(O)C1O (stereo not shown) [ADPr, Adenosine 5′-diphosphoribose sodium salt]
Return: 5.70

###

target: HCoV-229e macrodomain (Human coronavirus 229E, UniProt P0C6X1); test: DeMAR HTRF deMARylation assay, wash protocol; assay type: biochemical; settings: read-out: IC50 HCoV-229e; wash setup, 2 h, 80 nM macrodomain, 6 nM immobilized Tb-PARP10cat
Sequence (P0C6X1 1270-1437 limits assumed): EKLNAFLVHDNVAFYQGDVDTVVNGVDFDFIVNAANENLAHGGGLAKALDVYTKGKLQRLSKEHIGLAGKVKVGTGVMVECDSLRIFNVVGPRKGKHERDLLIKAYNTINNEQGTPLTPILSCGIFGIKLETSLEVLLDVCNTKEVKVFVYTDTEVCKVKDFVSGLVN
Entries annotated with measured IC50

Observe how each entry below is paired with its result.
molecule | IC50
O=C(Nc1ccc(C(=O)NC2c3cccc(O)c3CC2C(=O)O)cc1)NC1CC1 (stereo not drawn) | > 667 µM
O=C(Nc1ccc(C(=O)NC2c3cccc(O)c3CC2C(=O)O)c(O)c1)NC1CC1 (stereo not drawn) | > 667 µM

API: the following record is the query input.
Enquiry: Any idea what its IC50 is? The molecule is N#C[C@@]1(c2ccc3c(N)ncnn23)O[C@H](CO)[C@@H](O)[C@H]1O
Return: > 667 µM

###

target: MacroD2 (Homo sapiens, UniProt A1Z1Q3); type: biochemical; details: read-out: IC50 MacroD2
Sequence (A1Z1Q3 4-243): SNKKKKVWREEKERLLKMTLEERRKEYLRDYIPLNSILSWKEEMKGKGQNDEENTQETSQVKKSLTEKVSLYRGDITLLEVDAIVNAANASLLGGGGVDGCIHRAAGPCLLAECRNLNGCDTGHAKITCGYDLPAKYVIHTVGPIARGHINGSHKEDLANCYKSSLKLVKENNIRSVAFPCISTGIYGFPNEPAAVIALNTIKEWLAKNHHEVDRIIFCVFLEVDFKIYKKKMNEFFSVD
measuredProperty: IC50

Enquiry: Any idea what its IC50 is? The compound is O=C(Nc1ccccc1)Nc1ccc(C(=O)NC2c3cccc(O)c3CC2C(=O)O)cc1 (stereo not shown)
Return: > 667 µM

###

biological target: HCoV-229e macrodomain (Human coronavirus 229E, UniProt P0C6X1); assay: DeMAR HTRF deMARylation assay, wash protocol; assay type: biochemical
pIC50: −log10 of the molar value. Counter-ions that a name gives are not always drawn.
measuredProperty: pIC50

Enquiry: Any idea what its pIC50 is? The compound is Nc1ncnc2c1ncn2C1OC(COP(=O)(O)OP(=O)(O)OCC2OC(O)C(O)C2O)C(O)C1O (stereo not shown) [ADPr, Adenosine 5′-diphosphoribose sodium salt]
Return: ~3.34
